Target: T1, human TIGIT protein (human, UniProt Q495A1 22-141, limits assumed)
T1 construct: Recombinant protein (Genentech) used in ELISA screening and as SPR analyte; also called TIGIT antigen
T1 sequence: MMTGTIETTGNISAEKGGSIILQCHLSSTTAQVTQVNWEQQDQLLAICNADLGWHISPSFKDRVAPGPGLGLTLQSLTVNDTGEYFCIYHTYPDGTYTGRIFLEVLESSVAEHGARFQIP
Test: SPR, captured mAb
Measured koff by item
measurement.type: koff (s⁻¹)

1) h7E7.L1H8 (antibody, V domains shown, VH: T93A against h7E7.L1H1; FR/HVR pieces) VH: EVQLVQSGAEVKKPGASVKVSCKASGYTFTEYSIYWVRQAPGQRLEIIGRIDPKNGRTYYVDKFKNRATLTADTSASTAYMELSSLRSEDTAVYFCARIYGFYFDFWGQGTLVTVSS VL: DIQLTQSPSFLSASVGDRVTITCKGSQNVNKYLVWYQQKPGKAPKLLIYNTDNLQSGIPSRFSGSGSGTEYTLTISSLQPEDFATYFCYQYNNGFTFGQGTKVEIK; 0.00101
2) h15C8.L1H7 (antibody, V domains shown, VH: T71R against h15C8.L1H1; FR/HVR pieces) VH: EVQLVQSGAEVKKPGASVKVSCKASGYTFTEHSIYWLRQAPGQRLEIIGRIDPKNGRTYFVDKFKNRATLTRDTSASTAYMELSSLRSEDTAVYFCARIDGFYFDFWGQGTLVTVSS VL: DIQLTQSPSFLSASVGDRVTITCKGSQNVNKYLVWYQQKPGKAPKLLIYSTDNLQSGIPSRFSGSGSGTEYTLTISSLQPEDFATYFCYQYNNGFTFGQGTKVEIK; 0.000597
3) rat15C8 (antibody, V domains shown, SD rat-derived; rat V domains as FR/HVR pieces; also called 1.15C8; Chimeric 1.15C8) VH: EVQLQQSGPELQRPGASVKLSCKASGYTFTEHSIYWLKQRPKQSLEIIGRIDPKNGRTYFVDKFKNRATLTTNTSSNTAYMQLSSLTSEDTAIYFCARIDGFYFDFWGQGVMVTASS VL: NIHLTQSPSLLSASVGDRVTLSCKGSQNVNKYLVWYQQKLGEAPKLLIYSTDNLQSGIPSRFSGSGSGTDYTLTISSLQPEDAATYFCYQYNNGFTFGSGTKLEIK; 1.8e-05
